Data provenance: patent US20050282757A1

- experiment.description: Maximum aqueous solubility by UV after shaking in water at 37° C.
- Format: physicochemical
- condition.label: read-out: Solubility when dissolved at 50 mg/ml
recorded.metric: solubility (mM)
Value expressed in mM; do not type the unit.

Given COCCC[C@H](NC(=O)[C@@H]1CCCN1C(=O)[C@@H](Cc1ccccc1)NC(=O)OCc1ccccc1)B(O)O [TRI 50c, Cbz-(R)-Phe-(S)-Pro-(R)-Mpg-B(OH)2] , state its recorded solubility. 8
